measured_on: NK2-receptor (Cavia porcellus, UniProt Q64077)
Construct: from tissue; host or cells: whole animal (Pirbright-White guinea pigs), in vivo
Sequence (Q64077 whole entry): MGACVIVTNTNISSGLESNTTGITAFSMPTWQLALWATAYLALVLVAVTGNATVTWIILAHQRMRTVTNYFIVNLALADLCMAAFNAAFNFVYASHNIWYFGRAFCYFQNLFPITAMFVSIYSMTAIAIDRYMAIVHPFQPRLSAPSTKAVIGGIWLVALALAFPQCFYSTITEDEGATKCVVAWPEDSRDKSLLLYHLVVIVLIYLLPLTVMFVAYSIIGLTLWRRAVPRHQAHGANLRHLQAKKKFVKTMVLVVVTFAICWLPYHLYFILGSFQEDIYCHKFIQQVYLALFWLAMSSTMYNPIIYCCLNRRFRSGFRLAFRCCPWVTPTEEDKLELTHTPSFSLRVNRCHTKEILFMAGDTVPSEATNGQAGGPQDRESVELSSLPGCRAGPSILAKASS
assay_remarks: NK2-receptor-antagonistic effectiveness in vivo, NKA-induced late hypotension, bronchoconstriction and colonic pressure in anaesthetised guinea pigs
test_context: guinea pig, NKA 200 pmol/animal i.v., intravenous administration
Protocol: 10. Determination of the NK1- and NK2-Receptor-Antagonistic Effectiveness of the Test Substances In Vivo […] Pirbright-White guinea pigs of a body weight of 500-700 g were anaesthetised with ketamine/xylazine (67/13 mg/kg subcutaneously, initial dose, further doses administered as required). […] The animals were artificially ventilated via a tracheal cannula and the respiratory pressure was recorded by means of a pressure transducer. […]
recorded_metric: ED50 iv after 1 min (cumulative), NK2 (late hypotension) (µmol/kg)

| compound_string | endpoint_unit | observed_result |
| --- | --- | --- |
| CN(C)C(=O)C1(N2CCCCC2)CCN(CC[C@H](CN(C)C(=O)c2cc(F)cc(F)c2)c2ccc(Cl)c(Cl)c2)CC1 | µmol/kg | 0.108 |

(P) CN(C)C(=O)C1(N2CCCCC2)CCN(CC[C@H](CN(C)C(=O)c2cc(F)ccc2F)c2ccc(Cl)c(Cl)c2)CC1
(Q) CN(C)C(=O)C1(N2CCCCC2)CCN(CC[C@H](CN(C)C(=O)C2CCCCC2)c2ccc(Cl)c(Cl)c2)CC1
(R) CN(C)C(=O)C1(N2CCCCC2)CCN(CC[C@H](CN(C)C(=O)c2ccc(F)cc2)c2ccc(Cl)c(Cl)c2)CC1
(S) CN(C)C(=O)C1(N2CCCCC2)CCN(CC[C@H](CN(C)C(=O)c2cc(C#N)c3ccccc3c2)c2ccc(Cl)c(Cl)c2)CC1
Hey, quick one: sort these by ED50 iv after 1 min (cumulative), NK2 (late hypotension), low to high? In your reply, arrange the labels in the requested order. R, P, S, Q

====

measured_on: human NK3 receptor (Homo sapiens, UniProt P29371)
Sequence (P29371 1-465): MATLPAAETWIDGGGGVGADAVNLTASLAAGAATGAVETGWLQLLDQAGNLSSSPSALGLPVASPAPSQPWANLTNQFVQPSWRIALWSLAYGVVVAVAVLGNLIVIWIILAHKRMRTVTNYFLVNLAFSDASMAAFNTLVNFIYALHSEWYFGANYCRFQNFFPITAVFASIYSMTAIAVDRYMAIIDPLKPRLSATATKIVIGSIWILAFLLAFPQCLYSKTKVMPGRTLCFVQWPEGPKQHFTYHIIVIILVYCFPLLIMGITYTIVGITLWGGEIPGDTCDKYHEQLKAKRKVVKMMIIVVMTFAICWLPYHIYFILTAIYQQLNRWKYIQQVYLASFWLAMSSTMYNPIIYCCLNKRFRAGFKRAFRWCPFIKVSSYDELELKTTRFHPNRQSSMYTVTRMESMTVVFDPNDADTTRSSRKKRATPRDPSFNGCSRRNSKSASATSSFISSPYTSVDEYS
assay_remarks: Binding potency of the test substances to NK3-receptors in vitro ([3H]-SR 142801 displacement)
Set-up: expressed in transfected cells; host or cells: CHO cells (membrane preparation)
test_context: human NK3-receptor in CHO cell membranes, [3H]-SR 142801 (osanetant); average of at least three measurements; read-out: pKi, binding potency to NK3-receptors (converted)
recorded_metric: Ki (nM)

(A) CN(C)C(=O)C1(N2CCCCC2)CCN(CCC(CN(C)C(=O)C2CCCC2)c2ccc(Cl)c(Cl)c2)CC1 (stereo not shown)
(B) CN(C)C(=O)C1(N2CCCCC2)CCN(CCC(CN(C)C(=O)c2cccnc2)c2ccc(Cl)c(Cl)c2)CC1 (stereo not shown)
(C) CN(C)C(=O)C1(N2CCCCC2)CCN(CCC(CN(C)C(=O)c2cccs2)c2ccc(Cl)c(Cl)c2)CC1 (stereo not shown)
(D) CN(C)C(=O)C1(N2CCCCC2)CCN(CCC(CN(C)C(=O)c2ccc(C(F)(F)F)cc2)c2ccc(Cl)c(Cl)c2)CC1 (stereo not shown)
Reorder the list above by recorded Ki in ascending order. Put the labels in the requested order and list them out. A, C, B, D
(A: 10 nM, C: 20 nM, B: 31.6 nM, D: 63.1 nM)

(a) CN(C[C@@H](CCN1CCC(C(=O)N2CCCCC2)(N2CCCCC2)CC1)c1ccc(Cl)c(Cl)c1)C(=O)c1ccccc1
(b) CN(C)C(=O)C1(N2CCCCC2)CCN(CCC(CN(C)C(=O)c2cc(Cl)ccc2F)c2ccc(Cl)c(Cl)c2)CC1 (stereo not shown)
(c) CN(C)C(=O)C1(N2CCCCC2)CCN(CCC(CN(C)C(=O)c2ccc(Cl)cc2Cl)c2ccc(Cl)c(Cl)c2)CC1 (stereo not shown)
(d) CN(C)C(=O)C1(N2CCCCC2)CCN(CCC(CN(C)C(=O)c2cccc(Cl)c2)c2ccc(Cl)c(Cl)c2)CC1 (stereo not shown)
Ascending sort, Ki. Return value: ordered labels per request. b, a, c, d
(b: 10 nM, a: 20 nM, c: 39.8 nM, d: 79.4 nM)

(P) CN(CC(CCN1CCC(C(=O)N2CCCCC2)(N2CCCCC2)CC1)c1ccc(Cl)c(Cl)c1)C(=O)c1cc(C#N)cc2ccccc12 (stereo not shown)
(Q) COc1ccc(-c2ocnc2C(=O)N(C)CC(CCN2CCC(C(=O)N(C)C)(N3CCCCC3)CC2)c2ccc(Cl)c(Cl)c2)cc1 (stereo not shown)
When the recorded Ki values are compared, which is smaller: that of P or that of Q ? Field: selected label. Fill in the label of the entry you choose. Q

(I) CN(C)C(=O)C1(N2CCCCC2)CCN(CCC(CN(C)C(=O)Cc2ccccn2)c2ccc(Cl)c(Cl)c2)CC1 (stereo not shown)
(II) CN(C)C(=O)C1(N2CCCCC2)CCN(CCC(CN(C)C(=O)c2c(F)c(F)c(F)c(F)c2F)c2ccc(Cl)c(Cl)c2)CC1 (stereo not shown)
(III) CN(C)C(=O)C1(N2CCCCC2)CCN(CCC(CN(C)C(=O)c2cccn2C)c2ccc(Cl)c(Cl)c2)CC1 (stereo not shown)
Endpoint returns the given compounds ordered by ascending Ki. Form entry: labels listed in requested order. I, III, II
